Data origin: PubChem BioAssay AID504652

molecular target: D(1A) dopamine receptor (Homo sapiens) (UniProt P21728); test: Antagonist of Human D 1 Dopamine Receptor: qHTS; conditions: HEK293 TREx D1 cells, calcium flux, dopamine EC80; at 10 µM; further: on the % scale 0 is the no-effect control and ±100 the full control effect
Sequence (P21728 whole entry, looked up): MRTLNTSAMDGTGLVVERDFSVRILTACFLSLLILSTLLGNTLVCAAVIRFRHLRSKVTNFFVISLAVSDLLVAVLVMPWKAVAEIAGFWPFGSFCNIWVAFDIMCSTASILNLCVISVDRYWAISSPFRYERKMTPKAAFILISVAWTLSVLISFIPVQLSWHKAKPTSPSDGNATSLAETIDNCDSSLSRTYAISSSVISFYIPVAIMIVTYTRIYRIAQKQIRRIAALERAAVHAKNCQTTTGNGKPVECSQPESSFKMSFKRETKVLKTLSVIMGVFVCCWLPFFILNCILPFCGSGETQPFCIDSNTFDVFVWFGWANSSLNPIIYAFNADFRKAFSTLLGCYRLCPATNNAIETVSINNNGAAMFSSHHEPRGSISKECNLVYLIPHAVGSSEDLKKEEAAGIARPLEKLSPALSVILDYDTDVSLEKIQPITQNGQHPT
Screen size: about 360,000 compounds; about 11,000 (3.1%) were called active. No stated cut-off is given here; in the data, active means activity change below about -30%; inactive means the rest. Many of the other results were omitted from the sample, so actives are more common in it than they were.
Outcomes: 1 for active, 0 for inactive

- structure-smiles-string: "O=C(CCCCn1c(=O)c2ccccc2n(CC(=O)Nc2cccc(C(F)(F)F)c2)c1=O)NCc1ccc2c(c1)OCO2"
  discrete-label: 0
- structure-smiles-string: "CCCCN(CC)CCCNC(=O)c1nn(C)c2c1CSc1ccccc1-2"
  discrete-label: 0
- structure-smiles-string: "COc1ccc(NC(=O)NCc2ccc3c(c2)OCO3)c(OC)c1"
  discrete-label: 0
- structure-smiles-string: "COc1ccc(/C(N)=N/OC(=O)Cc2ccccc2)cc1"
  discrete-label: 0
- structure-smiles-string: "COc1ccc(/C(N)=N/OC(=O)CCCc2ccccc2)cc1"
  discrete-label: 1
